- subject_of_test: T1, Peptide-2 (human, phosphothreonine 212, phosphothreonine 217 (tau 2N4R numbering); short chain biotin (SCBiot) and dPEG4 at the N-terminus; amide at the C-terminus)
- T1 construct: also called pT212/pT217-tau peptide (Peptide-2)
- protocol_summary: SPR ProteOn, mAb captured, peptide as analyte
outcome_measure: koff (s⁻¹)
The figure you give is taken to be in s⁻¹; do not add the unit.

Known results for binders:
// koff lookup, binder = B252 (antibody, human IgG1, V domains shown, Humanized (HFA) PT3 variant, human IgG1/kappa; also called VH93/VL80) VH: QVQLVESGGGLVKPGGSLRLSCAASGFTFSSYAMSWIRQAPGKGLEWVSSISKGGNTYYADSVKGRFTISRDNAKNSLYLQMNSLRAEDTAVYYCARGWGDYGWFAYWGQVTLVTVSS VL: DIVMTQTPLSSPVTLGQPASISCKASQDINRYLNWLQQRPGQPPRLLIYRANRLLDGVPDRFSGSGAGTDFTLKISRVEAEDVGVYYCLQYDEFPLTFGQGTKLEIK , result: 0.000901

Recorded result, B280 (antibody, human IgG1, V domains shown, Humanized (HFA) PT3 variant, human IgG1/kappa; also called VH91/VL80) VH: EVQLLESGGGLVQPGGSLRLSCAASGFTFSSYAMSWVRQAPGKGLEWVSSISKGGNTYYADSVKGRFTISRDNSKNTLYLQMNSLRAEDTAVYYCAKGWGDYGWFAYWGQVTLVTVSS VL: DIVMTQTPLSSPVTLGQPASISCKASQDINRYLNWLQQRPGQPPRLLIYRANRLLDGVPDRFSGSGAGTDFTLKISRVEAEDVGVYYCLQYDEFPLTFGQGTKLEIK , koff: 0.00274

---
Entry B235 (antibody, human IgG1, V domains shown, Humanized (HFA) PT3 variant, human IgG1/kappa; also called VH91/VL77) VH: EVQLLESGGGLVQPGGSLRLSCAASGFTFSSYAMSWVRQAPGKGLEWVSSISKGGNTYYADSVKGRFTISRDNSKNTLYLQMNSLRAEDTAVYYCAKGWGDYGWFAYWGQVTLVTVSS VL: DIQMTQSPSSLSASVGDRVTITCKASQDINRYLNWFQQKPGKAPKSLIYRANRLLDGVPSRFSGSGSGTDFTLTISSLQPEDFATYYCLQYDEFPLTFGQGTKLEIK , koff reported as 0.00569

What the record says about B234 (antibody, human IgG1, V domains shown, Mouse PT3 variable regions (VH10/VL7) with human IgG1/kappa constant region; also called mouse PT3, hIgG1) VH: EVKLVESGGDLVKPGGSLKLSCAASGFTFSSYAMSWVRQNPEKRLEWVASISKGGNTYYPNSVKGRFTISRDNARNILYLQMSSLRSEDTALYYCARGWGDYGWFAYWGQVTLVTVSA VL: DIKMTQSPSSMYASLGERVTITCKASQDINRYLNWFQQKPGKSPKTLIYRANRLLDGVPSRFSGSGSGQDYSLTISSLDYEDMGIYYCLQYDEFPLTFGDGTKLELK : koff is 0.000325

For this binder ( B296 (antibody, human IgG1, kappa, V domains shown, Humanized PT3, human IgG1/kappa; also called VH92/VL77; HFA-PT3) VH: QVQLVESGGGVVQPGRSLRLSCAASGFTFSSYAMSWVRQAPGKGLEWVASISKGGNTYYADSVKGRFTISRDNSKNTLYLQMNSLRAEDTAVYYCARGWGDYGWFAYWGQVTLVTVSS VL: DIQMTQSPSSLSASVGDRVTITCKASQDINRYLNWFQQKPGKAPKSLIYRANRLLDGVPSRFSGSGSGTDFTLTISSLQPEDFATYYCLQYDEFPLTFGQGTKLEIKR ), measured koff is 0.000826

Reported koff ( B282 (antibody, human IgG1, V domains shown, Humanized (HFA) PT3 variant, human IgG1/kappa; also called VH93/VL77) VH: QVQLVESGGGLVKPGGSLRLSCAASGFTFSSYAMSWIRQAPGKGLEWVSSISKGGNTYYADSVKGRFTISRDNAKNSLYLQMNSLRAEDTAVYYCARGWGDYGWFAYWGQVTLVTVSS VL: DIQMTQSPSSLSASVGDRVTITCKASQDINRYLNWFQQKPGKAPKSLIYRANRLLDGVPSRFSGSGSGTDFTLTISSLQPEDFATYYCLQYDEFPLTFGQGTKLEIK ) = 0.00132
